Sourced from patent US5116829A

Each entry below carries its recorded survival at 336 h.
- protocol.details: Acute toxicity (oral administration)
- Design: species or system ICR mice (male)
- settings: mouse, in vivo, dose 5 (mg/kg), 14 days after administration, read-out: Viability (%)
Give just the numeric value; % need not be written.

{"compound": "CCCCC(=O)O[C@]1(C(=O)CO)[C@@H](C)C[C@H]2[C@@H]3CCC4=CC(=O)C=C[C@]4(C)[C@@]3(F)[C@@H](O)C[C@@]21C [Betamethasone 17-valerate, betamethasone 17-valerate, reference compound]", "unit.info": "%", "survival at 336 h": 50}

Switching to the query record.
What survival at 336 h value was documented for this compound, `CSCC[C@H](NC=O)C(=O)SCC(=O)[C@@]1(O)[C@@H](C)C[C@H]2[C@@H]3CCC4=CC(=O)C=C[C@]4(C)[C@@]3(F)[C@@H](O)C[C@@]21C` ?
100
